- System: HCVpp GT-1b (pseudotyped HCV GT1b particles, E1 and E2 envelope proteins of GT1b Con1 strain)
- RUN_DESCRIPTION: microbe, parasite or virus in culture
- Assay type: cell-based
- EXPERIMENTAL_CONDITIONS: Hepatitis C virus, 72 h, read-out: HCVpp GT-1b (EC50, μM)
Hi! Could you tag entries with EC50 below 20 µM as MET, and those at or above as NOT MET? Much appreciated.

| SMI | CLASS_NAME |
| --- | --- |
| Clc1cc(Cl)cc(Nc2n[nH]c(Cc3ccccc3)n2)c1 | MET |
| NCc1nc(Nc2cc(Cl)cc(Cl)c2)n[nH]1 | NOT MET |
| CNc1nc(Nc2ccc(C#N)c(C(F)(F)F)c2)n[nH]1 | MET |
| Clc1cc(Cl)cc(Nc2nc(Br)n[nH]2)c1 | NOT MET |
| Clc1cc(Cl)cc(Nc2ncn(Cc3ccccc3)n2)c1 | NOT MET |
| COc1n[nH]c(Nc2ccc(C#N)c(C(F)(F)F)c2)n1 | MET |
| COc1n[nH]c(Nc2cc(Cl)c(Br)c(Cl)c2)n1 | MET |
| N#Cc1c(Cl)cc(Nc2ncn[nH]2)cc1Cl | MET |
